tested on: hemoglobin-haptoglobin complex; assay: Stability of hemoglobin (as hemoglobin-haptoglobin complex) in samples preserved at 37° C. in preservation solution containing 1 unit/L haptoglobin, Hb measured by latex agglutination method (Examples 1 to 7); set-up: species or system human; settings: Feces 3; sugar 50 mmol/L + phenylboronic acid 15 mmol/L; 37° C., 21 days
measure.name: Hb concentration (µg/L)
Write it as a number; the unit µg/L goes unstated.

The examples below pair each entry with its known result.
1) O=C(CO)[C@@H](O)[C@H](O)[C@H](O)CO [Fructose, fructose] = 203
2) OC[C@H]1O[C@@](CO)(O[C@H]2O[C@H](CO)[C@@H](O)[C@H](O)[C@H]2O)[C@@H](O)[C@@H]1O [Sucrose, sucrose] = 195
3) OC[C@H]1O[C@H](O[C@H]2O[C@H](CO)[C@@H](O)[C@H](O)[C@H]2O)[C@H](O)[C@@H](O)[C@@H]1O [Trehalose, trehalose] = 178

## Task Give the measured Hb concentration for OC[C@@H](O)[C@@H](O)[C@H](O)[C@@H](O)CO [Sorbitol, sorbitol]
## Result 223

---

Hb concentration for assorted compounds
tested on: hemoglobin-haptoglobin complex; assay: Stability of hemoglobin (as hemoglobin-haptoglobin complex) in samples preserved at 37° C. in preservation solution containing 1 unit/L haptoglobin, Hb measured by latex agglutination method (Examples 1 to 7); set-up: species or system human; details: Feces 3; sugar 100 mmol/L + phenylboronic acid 15 mmol/L; 37° C., 0 days
Write it as a number; the unit µg/L goes unstated.

1) OC[C@H]1O[C@H](O[C@H]2O[C@H](CO)[C@@H](O)[C@H](O)[C@H]2O)[C@H](O)[C@@H](O)[C@@H]1O = 281

## Task Give the measured Hb concentration for OC[C@@H](O)[C@@H](O)[C@H](O)[C@@H](O)CO
## Result 278

## Task Give the measured Hb concentration for O=C(CO)[C@@H](O)[C@H](O)[C@H](O)CO
## Result 276

## Task Give the measured Hb concentration for OC[C@@H](O)[C@@H](O)[C@H](O)[C@H](O)CO
## Result 286

## Task Give the measured Hb concentration for OC[C@H]1O[C@@](CO)(O[C@H]2O[C@H](CO)[C@@H](O)[C@H](O)[C@H]2O)[C@@H](O)[C@@H]1O
## Result 272

---

Test system: hemoglobin-haptoglobin complex
Assay: Stability of hemoglobin (as hemoglobin-haptoglobin complex) in samples preserved at 37° C. in preservation solution containing 1 unit/L haptoglobin, Hb measured by latex agglutination method (Examples 1 to 7)
Parameters: species or system human
Settings: Feces 1; sugar 100 mmol/L, no phenylboronic acid; 37° C., 21 days
Method: Preservation solutions were prepared with the addition of 40 mmol/L HEPES (pH 6.8), 0.1% BSA, 0.1% NaN3, 1 unit/L haptoglobin, and 0 to 100 mmol/L phenylboronic acid. Samples obtained by adding hemoglobin-added fecal specimens to the preservation solutions so that the fecal concentration would be 0.5% were preserved at 37° C. for 0, 7, 14, and 21 days. […] The hemoglobin (Hb) concentrations (μg/L) in the preserved samples were measured by the latex agglutination method. […]
Recovery ratio with respect to Hb concentration after 0 days for assorted molecules
Answer format reminder: number followed by unit.

1. O=C(CO)[C@@H](O)[C@H](O)[C@H](O)CO [Fructose, fructose] = 28%
2. OC[C@@H](O)[C@@H](O)[C@H](O)[C@@H](O)CO [Sorbitol, sorbitol] = 34%
3. OC[C@H]1O[C@@](CO)(O[C@H]2O[C@H](CO)[C@@H](O)[C@H](O)[C@H]2O)[C@@H](O)[C@@H]1O [Sucrose, sucrose] = 30%

Please examine the following record next.
## Task Give the measured Recovery ratio with respect to Hb concentration after 0 days for OC[C@H]1O[C@H](O[C@H]2O[C@H](CO)[C@@H](O)[C@H](O)[C@H]2O)[C@H](O)[C@@H](O)[C@@H]1O [Trehalose, trehalose]
## Result 17%

---

System: hemoglobin-haptoglobin complex
Assay: Stability of hemoglobin (as hemoglobin-haptoglobin complex) in samples preserved at 37° C. in preservation solution containing 1 unit/L haptoglobin, Hb measured by latex agglutination method (Examples 1 to 7)
Design: species or system human
Conditions: No feces; sugar 100 mmol/L + phenylboronic acid 15 mmol/L; 37° C., 0 days
Experimental: Preservation solutions were prepared with the addition of 40 mmol/L HEPES (pH 6.8), 0.1% BSA, 0.1% NaN3, 1 unit/L haptoglobin, and 0 to 100 mmol/L phenylboronic acid. Samples obtained by adding hemoglobin-added fecal specimens to the preservation solutions so that the fecal concentration would be 0.5% were preserved at 37° C. for 0, 7, 14, and 21 days. […] The hemoglobin (Hb) concentrations (μg/L) in the preserved samples were measured by the latex agglutination method. […]
measure.name: Recovery ratio with respect to Hb concentration after 0 days (%)
Write it as a number; the unit % goes unstated.

The examples below pair each entry with its known result.
1. OC[C@@H](O)[C@@H](O)[C@H](O)[C@H](O)CO = 100
2. OC[C@H]1O[C@@](CO)(O[C@H]2O[C@H](CO)[C@@H](O)[C@H](O)[C@H]2O)[C@@H](O)[C@@H]1O = 100
3. OC[C@@H](O)[C@@H](O)[C@H](O)[C@@H](O)CO = 100
4. O=C(CO)[C@@H](O)[C@H](O)[C@H](O)CO = 100

Please examine the following record next.
## Task Give the measured Recovery ratio with respect to Hb concentration after 0 days for OC[C@H]1O[C@H](O[C@H]2O[C@H](CO)[C@@H](O)[C@H](O)[C@H]2O)[C@H](O)[C@@H](O)[C@@H]1O
## Result 100

---

biological target: hemoglobin (Homo sapiens, UniProt P68871+P69905); assay: Stability of hemoglobin in samples preserved at 37° C. in preservation solution containing no haptoglobin, Hb measured by latex agglutination method (Examples 8, 9 and Table 10); conditions: Feces 2; 16 h at 37° C.; no phenylboronic acid, sugar 100 mmol/L
Sequence (P69905 2-142): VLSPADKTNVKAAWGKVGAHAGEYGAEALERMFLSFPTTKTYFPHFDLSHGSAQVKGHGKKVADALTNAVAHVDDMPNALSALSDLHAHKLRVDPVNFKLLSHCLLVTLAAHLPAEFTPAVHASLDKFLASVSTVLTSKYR
Sequence (P68871 2-147): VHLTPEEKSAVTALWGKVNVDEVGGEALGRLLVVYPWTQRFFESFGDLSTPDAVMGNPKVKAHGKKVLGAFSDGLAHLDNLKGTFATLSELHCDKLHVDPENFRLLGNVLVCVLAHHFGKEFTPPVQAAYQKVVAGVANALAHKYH
Hb concentration for assorted molecules
Write it as a number; the unit µg/L goes unstated.

The examples below pair each entry with its known result.
1. O=C(CO)[C@@H](O)[C@H](O)[C@H](O)CO = 60
2. OC[C@H]1O[C@@](CO)(O[C@H]2O[C@H](CO)[C@@H](O)[C@H](O)[C@H]2O)[C@@H](O)[C@@H]1O = 57

## Task Give the measured Hb concentration for OC[C@H]1O[C@H](O[C@H]2O[C@H](CO)[C@@H](O)[C@H](O)[C@H]2O)[C@H](O)[C@@H](O)[C@@H]1O
## Result 54

## Task Give the measured Hb concentration for OC[C@@H](O)[C@@H](O)[C@H](O)[C@H](O)CO
## Result 55

## Task Give the measured Hb concentration for OC[C@@H](O)[C@@H](O)[C@H](O)[C@@H](O)CO
## Result 61

---

Hb concentration for assorted compounds
system: hemoglobin-haptoglobin complex; experiment: Stability of hemoglobin (as hemoglobin-haptoglobin complex) in samples preserved at 37° C. in preservation solution containing 1 unit/L haptoglobin, Hb measured by latex agglutination method (Examples 1 to 7); design: species or system human; details: No feces; arylboronic acid 15 mmol/L; 37° C., 0 days

1) O=C(O)c1ccccc1B(O)O = 292 µg/L
2) OB(O)c1cccc(O)c1 [3H-PBA, 3-hydroxyphenylboronic acid] = 303 µg/L
3) O=C(O)c1ccc(B(O)O)cc1 = 279 µg/L

## Task Give the measured Hb concentration for O=C(O)c1cccc(B(O)O)c1
## Result 293 µg/L

---

Recovery ratio with respect to Hb concentration after 0 days for assorted compounds
test system: hemoglobin-haptoglobin complex; assay: Stability of hemoglobin (as hemoglobin-haptoglobin complex) in samples preserved at 37° C. in preservation solution containing 1 unit/L haptoglobin, Hb measured by latex agglutination method (Examples 1 to 7); design: species or system human; conditions: Feces 2; sugar 50 mmol/L + phenylboronic acid 15 mmol/L; 37° C., 7 days
Write it as a number; the unit % goes unstated.

## Task Give the measured Recovery ratio with respect to Hb concentration after 0 days for OC[C@@H](O)[C@@H](O)[C@H](O)[C@H](O)CO [Mannitol, mannitol]
## Result 98

## Task Give the measured Recovery ratio with respect to Hb concentration after 0 days for OC[C@H]1O[C@@](CO)(O[C@H]2O[C@H](CO)[C@@H](O)[C@H](O)[C@H]2O)[C@@H](O)[C@@H]1O [Sucrose, sucrose]
## Result 97

## Task Give the measured Recovery ratio with respect to Hb concentration after 0 days for OC[C@H]1O[C@H](O[C@H]2O[C@H](CO)[C@@H](O)[C@H](O)[C@H]2O)[C@H](O)[C@@H](O)[C@@H]1O [Trehalose, trehalose]
## Result 90

## Task Give the measured Recovery ratio with respect to Hb concentration after 0 days for OC[C@@H](O)[C@@H](O)[C@H](O)[C@@H](O)CO [Sorbitol, sorbitol]
## Result 100

## Task Give the measured Recovery ratio with respect to Hb concentration after 0 days for O=C(CO)[C@@H](O)[C@H](O)[C@H](O)CO [Fructose, fructose]
## Result 102
